Recorded pIC50, one value per entry.
Target: Factor XIa (Homo sapiens (Human), UniProt P03951)
Sequence (P03951 388-625): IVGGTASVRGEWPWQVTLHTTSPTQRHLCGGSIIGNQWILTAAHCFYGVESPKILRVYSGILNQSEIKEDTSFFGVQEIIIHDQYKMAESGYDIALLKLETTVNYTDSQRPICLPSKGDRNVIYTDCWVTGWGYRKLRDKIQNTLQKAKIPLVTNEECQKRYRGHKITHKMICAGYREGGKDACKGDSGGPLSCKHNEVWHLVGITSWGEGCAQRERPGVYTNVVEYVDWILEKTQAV
Sequence (P03951 19-387 partner): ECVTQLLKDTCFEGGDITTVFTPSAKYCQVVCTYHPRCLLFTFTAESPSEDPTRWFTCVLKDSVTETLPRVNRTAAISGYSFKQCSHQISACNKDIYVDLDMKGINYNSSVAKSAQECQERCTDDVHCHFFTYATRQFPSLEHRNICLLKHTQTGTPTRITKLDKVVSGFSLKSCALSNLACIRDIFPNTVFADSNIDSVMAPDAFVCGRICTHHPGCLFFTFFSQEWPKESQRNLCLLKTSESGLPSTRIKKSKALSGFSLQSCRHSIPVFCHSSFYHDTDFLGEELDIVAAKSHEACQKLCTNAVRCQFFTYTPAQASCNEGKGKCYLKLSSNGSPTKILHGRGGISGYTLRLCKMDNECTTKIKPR
Test: Factor XIa inhibition assay (FLINT) utilizing a fluorophore-quencher pair peptide substrate
Type: biochemical
Conditions: 30 min preincubation, kinetic reads over 30 min, 5Fam-KLTRAETV-K5Tamra substrate 15 μM; read-out: FXIa Kin Inh IC50
Remember, pIC50 is on a log scale: it is -log10 of the molar concentration.

Short answer please: pIC50, Factor XIa (Homo sapiens (Human), UniProt P03951), entry CC1C[C@@H](c2ncc(-c3ccc(N)nc3Cl)[nH]2)N2C(=O)C=C(c3c(-n4cnnn4)ccc(Cl)c3F)CC12 (stereo partly drawn)
9.22

Short answer please: pIC50, Factor XIa (Homo sapiens (Human), UniProt P03951), entry C[C@H](CO)Oc1nccc(-c2cnc([C@@H]3CC[C@@H]4CC(c5c(-n6cnnn6)ccc(Cl)c5F)=CC(=O)N43)[nH]2)c1F (single isomer, unassigned)
9.10

Short answer please: pIC50, Factor XIa (Homo sapiens (Human), UniProt P03951), entry O=C1C=C(c2c(-n3cnnn3)ccc(Cl)c2F)C[C@H]2CC[C@H](c3ncc(-c4ccnc(C5(O)CC5)c4F)[nH]3)N12 (single isomer, unassigned) [Example 116]
8.08

Short answer please: pIC50, Factor XIa (Homo sapiens (Human), UniProt P03951), entry O=C1C=C(c2c(-n3cnnn3)ccc(Cl)c2F)CC2CC[C@@H](c3nc(Cl)c(-c4cc[nH]c(=O)c4)[nH]3)N12 (stereo partly drawn)
8.89

Short answer please: pIC50, Factor XIa (Homo sapiens (Human), UniProt P03951), entry [2H]c1cc(N)nc(F)c1-c1[nH]c([C@@H]2CC[C@@H]3CC(c4c(-n5cnnn5)ccc(Cl)c4F)=CC(=O)N32)nc1[2H]
9.22

Read the next record carefully.
Short answer please: pIC50, Factor XIa (Homo sapiens (Human), UniProt P03951), entry O=C1C=C(c2c(-n3cnnn3)ccc(Cl)c2F)C[C@H]2CC[C@H](c3ncc(-c4ccnc(-n5cncn5)c4F)[nH]3)N12 (single isomer, unassigned)
8.02

###

Target: Factor XIa (Homo sapiens (Human), UniProt P03951)
Experiment: Factor XIa inhibition assay (FLINT) utilizing a fluorophore-quencher pair peptide substrate
Assay type: biochemical
Conditions: 30 min preincubation, kinetic reads over 30 min, 5Fam-KLTRAETV-K5Tamra substrate 15 μM; read-out: FXIa Kin Inh IC50
Decision: IC50 beneath 2 nM gives t; IC50 meeting or exceeding 2 nM gives f.

State whether 2 nM exceeds IC50 recorded for CC(C)(O)COc1nccc(-c2cnc([C@@H]3CC[C@@H]4CC(c5c(-n6cnnn6)ccc(Cl)c5F)=CC(=O)N43)[nH]2)c1F .
t

More entries:
State whether 2 nM exceeds IC50 recorded for [2H]C([2H])(O)c1nccc(-c2cnc([C@@H]3CC[C@]4([2H])CC(c5c(-n6cnnn6)ccc(Cl)c5F)=CC(=O)N34)[nH]2)c1F (single isomer, unassigned) .
f

State whether 2 nM exceeds IC50 recorded for Cn1cnc(-c2c[nH]c([C@@H]3CCC4CC(c5c(-n6cnnn6)ccc(Cl)c5F)=CC(=O)N43)n2)n1 (stereo partly drawn) .
f

State whether 2 nM exceeds IC50 recorded for O=C1C=C(c2c(-n3cnnn3)ccc(Cl)c2F)C[C@H]2CC[C@@H](c3nc(F)c(-c4ccnc(-c5ccn[nH]5)c4)[nH]3)N12 (single isomer, unassigned) .
t

State whether 2 nM exceeds IC50 recorded for O=C1C=C(c2c(-n3cnnn3)ccc(Cl)c2F)CC2CCC(c3ncc(-c4ccnc(-c5ccn[nH]5)c4)[nH]3)N12 (stereo not drawn) .
t

State whether 2 nM exceeds IC50 recorded for COCCNC(=O)c1nccc(-c2cnc([C@@H]3CC[C@@H]4CC(c5c(-n6cnnn6)ccc(Cl)c5F)=CC(=O)N43)[nH]2)c1F .
f
